Cited source for all entries: the supplement of paper PMC9112550

system: Escherichia coli TOP10; assay: shrunken log2 fold change of peptide-encoding DNA abundance (4.5 h post-induction vs induction); higher = less antimicrobial activity (less host growth inhibition); settings: time post-induction: 4.5 h; library: site-saturation at positions 5, 18, 19, 20;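 further: peptides expressed intracellularly from a pBAD plasmid library in pooled LB shake-flask culture, induced with 0.3% L-arabinose, DNA abundance read by NGS, three biological replicates, DESeq2 with apeglm shrinkage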
Reported shrunken log2 fold change by item:

| QUERY SEQUENCE | shrunken log2 fold change |
| --- | --- |
| RRIRRRPPRLPRPRPRPAIHPRP | 0.131 |
| RRIRNRPPRLPRPRPRPKAWPRP | 0.133 |
| RRIRNRPPRLPRPRPRPHFVPRP | -0.0954 |
| RRIRLRPPRLPRPRPRPRYLPRP | -0.0102 |
| RRIRQRPPRLPRPRPRPIAPPRP | 4.03 |
| RRIRHRPPRLPRPRPRPCCIPRP | -0.0109 |
| RRIRSRPPRLPRPRPRPLSIPRP | -0.447 |
| RRIRIRPPRLPRPRPRPYMFPRP | -0.892 |
| RRIRCRPPRLPRPRPRPTWHPRP | 0.00453 |
| RRIRQRPPRLPRPRPRPAGVPRP | -0.102 |
| RRIRVRPPRLPRPRPRPCGKPRP | -0.15 |
| RRIRQRPPRLPRPRPRPDTEPRP | 0.0371 |
| RRIRPRPPRLPRPRPRPYRAPRP | -0.329 |
| RRIRLRPPRLPRPRPRPMYDPRP | -0.787 |
| RRIRDRPPRLPRPRPRPQTGPRP | -0.283 |
